System: Bacillus subtilis
Assay: MIC, broth micro dilution
Observable: MIC (µg/mL)
Give bare numbers, in µg/mL.

> print(dat)
                                   compound        target.desc  reported.value
1  CCCCCc1cc(O)c(C/C=C(\C)CCC=C(C)C)c(O)c1 [Compound 2, (−)-cannabigerol]  Bacillus subtilis               2

Consider now this further compound.
Using known records, supply MIC for C=C(C)[C@@H]1CCC(C)=C[C@H]1c1c(O)cc(CCCCC)c2c1OCN(CCCC)C2.Cl [Compound 8s] 128

###

Test system: Staphylococcus epidermidis biofilm forming
Experiment: MIC, broth micro dilution
Details: Staphylococcus epidermidis
What MIC was measured for each of the following?

These recorded examples may help you get a feel for the data.
> print(dat)
                                   compound  reported.value
1  CCCCCc1cc(O)c(C/C=C(\C)CCC=C(C)C)c2c1CN(Cc1ccccc1)CO2 [Compound 17a]     > 256 µg/mL
2  CCCCCc1cc(O)c(C/C=C(\C)CCC=C(C)C)c2c1CN(CCCC(=O)O)CO2     > 256 µg/mL
3  C=C(C)[C@@H]1CCC(C)=C[C@H]1c1c(O)cc(CCCCC)c2c1OCN(Cc1ccccc1)C2     > 256 µg/mL
4  CCCCCc1cc(O)c(C/C=C(\C)CCC=C(C)C)c(O)c1 [Compound 2, (−)-cannabigerol]         8 µg/mL
5  C=C(C)[C@@H]1CCC(C)=C[C@H]1c1c(O)c(CN(CC)CC)c(CCCCC)c(CN(CC)CC)c1O     > 256 µg/mL
6  C=C(C)[C@@H]1CCC(C)=C[C@H]1c1c(O)cc(CCCCC)c2c1OCN(CCCC(=O)O)C2     > 256 µg/mL

Record MIC per entry; entries follow.
1. C=C(C)[C@@H]1CCC(C)=C[C@H]1c1c(O)cc(CCCCC)cc1O [Compound 1, (−)-Cannabidiol]
2. CCCCCc1c(CN(CC)CC)c(O)c(C/C=C(\C)CCC=C(C)C)c(O)c1CN(CC)CC [Compound 21b]
3. C=C(C)[C@@H]1CCC(C)=C[C@H]1c1c(O)cc(CCCCC)c(COCC)c1O

1. 8 µg/mL
2. > 256 µg/mL
3. > 256 µg/mL

###

System: SARS-CoV-2
Assay: SARS-CoV-2 cytopathic effect (CPE) inhibition assay in Vero E6 cells (XTT)
Assay type: cell-based
Details: Severe acute respiratory syndrome coronavirus 2, Vero C1008, read-out: IC50 (anti-SARS-CoV-2 activity, Figure 8)
Observable: IC50

Record IC50 per entry; entries follow.
1. CCCCCc1cc(O)c(C/C=C(\C)CCC=C(C)C)c2c1CN(Cc1ccccc1)CO2 [Compound 17a]
2. CCCCCc1cc(O)c(C/C=C(\C)CCC=C(C)C)c2c1CN(CCCC(=O)O)CO2
3. C=C(C)[C@@H]1CCC(C)=C[C@H]1c1c(O)c(CN(CC)CC)c(CCCCC)c(CN(CC)CC)c1O

["> 100 µM", "> 100 µM", "> 12 µM"]
